Data provenance: patent US20250339569A1

- target-desc: CAIX-expressing human HT-29 colorectal cancer cells (Homo sapiens, UniProt Q16790)
- Construct: CAIX-expressing human HT-29 colorectal cancer cells; host or cells: HT-29 human colorectal cancer cells
- test: FACS binding assay (IC50 determination, competition with tracer 3BP-2776 or 3BP-4149)
- condition-details: FACS binding assay, HT-29 cells, competition with tracer 3BP-4149 (3 nM, Cy5-labeled), 4° C., 1 hour; read-out: pIC50 category (activity) (converted)
Starred links: 1 amine or outer side, 2 acyl side, 3 side chain; linkers in the order of their positions; H or OH if unused. Positions of bridges follow the written chain, without caps; N, C: chain ends. Non-standard residues stand in square brackets, D forms with d. Residues, ends and D or L forms follow the SMILES beside them. *: point of attachment. DOTA = O=C(O)CN1CCN(CC(=O)O)CCN(CC(=O)*)CCN(CC(=O)O)CC1; mXylylene = c1cc(C[*:1])cc(C[*:2])c1; Dap = NC[C@H](N)C(=O)O; AEEA = NCCOCCOCC(=O)O
The entries below come with measured IC50 values attached.
endpoint: IC50

molecule: CC(C)C[C@@H]1NC(=O)[C@H](Cc2cccc(NC(=O)C[C@@H]3NC(=O)CNC3=O)c2)NC(=O)[C@H](CC(=O)O)NC(=O)[C@H]2CCCN2C(=O)[C@H](CCC(=O)O)NC(=O)[C@@H](NC(=O)[C@H](Cc2ccc(O)cc2)NC(=O)[C@@H](NC(=O)CN2CCC(NC(=O)CN3CCN(CC(=O)O)CCN(CC(=O)O)CCN(CC(=O)O)CC3)CC2)C(C)C)CSCc2cccc(c2)CSC[C@@H](C(N)=O)NC(=O)[C@H](CO)NC(=O)[C@H](Cc2c[nH]c3ccccc23)NC(=O)[C@H]([C@@H](C)O)NC1=O
result: 100 to 794 nM
--
molecule: CC(C)C[C@@H]1NC(=O)[C@H](Cc2c[nH]c3ccccc23)NC(=O)[C@H](CC(=O)O)NC(=O)[C@H]2CCCN2C(=O)[C@H](CCC(=O)O)NC(=O)[C@@H]2CSCc3cccc(c3)CSC[C@@H](C(N)=O)NC(=O)[C@H](CNC(=O)C[C@H](NC(=O)COCCOCCNC(=O)CN3CCN(CC(=O)O)CCN(CC(=O)O)CCN(CC(=O)O)CC3)C(=O)N2)NC(=O)[C@H](Cc2c[nH]c3ccccc23)NC(=O)[C@H]([C@@H](C)O)NC1=O [3BP-4262] ({DOTA-AEEA}-DCE[dP]DWLTW[Dap]C-NH2; lactam 1-10; linker 2-11 via mXylylene)
result: 10 to 79.4 nM
--
molecule: CC(C)C[C@@H]1NC(=O)[C@H](Cc2c[nH]c3ccccc23)NC(=O)[C@H](CC(=O)O)NC(=O)[C@H]2CCCN2C(=O)[C@H](CCC(=O)O)NC(=O)[C@@H]2CSCc3cccc(c3)CSC[C@@H](C(N)=O)NC(=O)[C@H](CNC(=O)C[C@H](NC(=O)[C@@H](NC(=O)CN3CCN(CC(=O)O)CCN(CC(=O)O)CCN(CC(=O)O)CC3)C(C)C)C(=O)N2)NC(=O)[C@H](Cc2c[nH]c3ccccc23)NC(=O)[C@H]([C@@H](C)O)NC1=O [3BP-4264] ({DOTA}-VDCE[dP]DWLTW[Dap]C-NH2; lactam 2-11; linker 3-12 via mXylylene)
result: < 10 nM
